Test system: FPR1, FPR2, FPR3, PMN
Type: cell-based, human
Settings: […]; it matches an identified peptide or IgG epitope of COVID-19 patients
ASSAY_ENDPOINT: Match with activator (region): Receptor

Example cases with answers are listed next.
SEQ_STRING	TEST_RESULT
DYSVLYNLAPFFTFKCYGV	PMN
NFNFNGLKGTGVLTE	FPR3
KVSGNYNYLYRLFRK	FPR3
EPEDLPQGFSALEPL	PMN
ITNLCPFDEVFNATR	FPR3

Please turn your attention to the following entry.
So what's the measured Match with activator (region): Receptor for this one? DYSVLYNLAPFFTFKCYGVSPTK FPR3
